assay: qHTS Assay for Lipid Storage Modulators in Drosophila S3 Cells; settings: BODIPY lipid droplet fluorescence, 18-24 h, cells fed with added oleic acid; series mostly up to 46.1 µM
Hit rate of the full screen: of about 320,000 compounds, about 2,100 (0.66%) were called active. Another 53% or so got no clear call; they are omitted. The call rests on the fitted dose curve; in most records, active means well fitted inhibition curve with a large enough effect in the signal ratio, with a control signal flat (not every such curve was filed as active); inconclusive means small, poorly fitted or top-dose-only effect, or effect the other way, or a change in a side signal; inactive means flat fitted curve, though single readings scatter; the % refers to the signal ratio. Many of the other results were omitted from the sample, so actives are more common in it than they were.
Labels: Yes for active, No for inactive

- Compound: "COc1ccc2[nH]c(=O)c(CN(CCN(C)C)C(=O)NCc3ccccc3)cc2c1"
  Class Label: "No"
- Compound: "CCOCCCNC(c1ccccc1)c1ccncc1 (centres undefined)"
  Class Label: "No"
- Compound: "Cc1ccc(-c2nn(-c3ccccc3)c3[nH]c(=O)c(CNCCN(C)C)cc23)cc1"
  Class Label: "No"
- Compound: "O=C(Oc1ccc(N(C(=O)c2ccncc2)S(=O)(=O)c2ccc(F)cc2)cc1)c1ccncc1"
  Class Label: "No"
- Compound: "COC(=O)COc1ccc(NC(=O)Cn2nc(-c3ccccc3)c3ccccc3c2=O)cc1"
  Class Label: "No"
- Compound: "CC(C)CNC(=O)c1cccc2c1-c1ccccc1C2=O"
  Class Label: "No"
- Compound: "Cn1c(CCNC(=O)c2ccc(Cl)cc2)n[nH]c1=S"
  Class Label: "No"
- Compound: "CCc1cc(C(=O)N2CCCC(CCC(=O)N3CCN(c4ccccn4)CC3)C2)no1 (centres undefined)"
  Class Label: "No"
- Compound: "COC(=O)c1c(NC(=O)c2ccco2)sc2c1CCN(C(C)=O)C2"
  Class Label: "Yes"
- Compound: "COc1ccc(-c2nnc(SCC(=O)O)n2Cc2ccccc2)cc1"
  Class Label: "No"
- Compound: "O=C(O)CSc1nnc(-c2ccc(Cl)cc2Cl)n1-c1ccccc1"
  Class Label: "No"
- Compound: "COC(=O)c1c(NC(=O)c2ccco2)sc2c1CCC2"
  Class Label: "No"
- Compound: "Cc1cc(-c2ccc(Cl)cc2Cl)c(C#N)c(=O)[nH]1"
  Class Label: "No"
- Compound: "COc1ccc(S(=O)(=O)N(C(=O)c2ccncc2)c2ccc(OC(=O)c3ccncc3)cc2)cc1"
  Class Label: "No"

---

cell number change overview
assay: qHTS Assay for Lipid Storage Modulators in Drosophila S3 Cells; conditions: BODIPY lipid droplet fluorescence, 18-24 h, cells fed with added oleic acid; measured here: cell count max response;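 on cell number change: cells counted by Cell Tracker Red CMTPX staining in the red channel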
The campaign covered roughly 320,000 compounds. About 2,100 (0.66%) were called active. Another 53% or so got no clear call; they are omitted. The sample holds actives, similar compounds and a random draw of the others, so the mix is not that of the screen.

- Compound: "COC(=O)CC1C(=O)NC2CCCCC2N1C(=O)c1ccccc1 (configuration not stated)"
  Unit Abbreviation: "%"
  cell number change: -6.42
- Compound: "CCc1ccccc1NC(=O)c1cnc2n(c1=O)CCS2"
  Unit Abbreviation: "%"
  cell number change: -5.43
- Compound: "CCN=C1SC(CC(=O)NC(C)c2ccccc2)C(=O)N1CC (configuration not stated)"
  Unit Abbreviation: "%"
  cell number change: 8.53
- Compound: "O=C(Nc1ccc(N2CCOCC2)cc1)C1CC1"
  Unit Abbreviation: "%"
  cell number change: 20.3
- Compound: "Cc1ccc(C(=O)Nc2cc3c(cc2N2CCCCC2)n(C)c(=O)n3C)cc1"
  Unit Abbreviation: "%"
  cell number change: -8.73
- Compound: "CC(C)CCNC(=O)C(C)N(Cc1ccc(F)cc1)C(=O)c1ccc(CN2CCOCC2)o1 (configuration not stated)"
  Unit Abbreviation: "%"
  cell number change: -9.3
- Compound: "CCC(=O)N1CCN(c2ccc(NC(=O)c3ccc4c(c3)OCCO4)cc2)CC1"
  Unit Abbreviation: "%"
  cell number change: 25.3
- Compound: "CCOc1ccc(Cl)cc1S(=O)(=O)N1CCCC1"
  Unit Abbreviation: "%"
  cell number change: 23.3
- Compound: "CCN(CC)S(=O)(=O)c1ccc(OCC(=O)NC(=O)c2ccccc2OC)c([N+](=O)[O-])c1"
  Unit Abbreviation: "%"
  cell number change: 2.39
- Compound: "S=C(NCC1CCCO1)Nc1ccccc1 (configuration not stated)"
  Unit Abbreviation: "%"
  cell number change: -0.626
- Compound: "O=[N+]([O-])c1ccc(N2CCCCC2)cc1"
  Unit Abbreviation: "%"
  cell number change: 7.1
- Compound: "O=C(Nc1ccccc1C(=O)NCCCN1CCOCC1)c1ccc(F)cc1F"
  Unit Abbreviation: "%"
  cell number change: 3.6
